System: HCC-2998 colon
Test: NCI-60 one-dose screen, 48 h
Conditions: 10 µM unless noted
About 83,000 compounds went through this panel and 20% of them were active in at least one assay; those are over-represented in the sample as a whole. Activity calls are given as the source filed them. The calls were made as follows: active = growth percent below 10; inactive = the rest.
Answer with one of the outcomes true = active, false = inactive

Record excerpt, results attached:
{"compound": "O=C1C2CC=CCC2C(=O)N1CNc1ccc(Cl)cc1 (stereo not given)", "targetEntity": "HCC-2998 colon", "category": "false"}
{"compound": "COc1cccc(-n2cc(-c3nc(Nc4cc(C)[nH]n4)c4ccccc4n3)nn2)c1", "targetEntity": "HCC-2998 colon", "category": "false"}
{"compound": "CS(=O)(CCCCN=C=S)=NC(=O)c1c(F)c(F)c(F)c(F)c1F (stereo not given)", "targetEntity": "HCC-2998 colon", "category": "false"}
{"compound": "O=C(O)c1c([N+](=O)[O-])cnc2ccccc12", "targetEntity": "HCC-2998 colon", "category": "false"}
{"compound": "Cc1cc(Nc2nc(N3CCN(C)CC3)nc3ccccc23)n[nH]1", "targetEntity": "HCC-2998 colon", "category": "false"}

Ask | Hey, what did the test say about O=C1/C(=C/c2ccc(Cl)cc2Cl)CN(S(=O)(=O)c2ccccc2)C/C1=C\c1ccc(Cl)cc1Cl ?
Reply | true

Ask | Hey, what did the test say about COC(=S)SCN(CSC(=S)OC)c1ccc(Cl)cc1 ?
Reply | false

Ask | Hey, what did the test say about COc1cnc2c(c1)C(=O)c1c-2n(CCCN2CCN(C)CC2)c(=O)c2cc([N+](=O)[O-])ccc12 ?
Reply | false

Ask | Hey, what did the test say about Nc1cc(-c2nc3sccn3c2-c2ccnc(NCCCNS(=O)(=O)c3ccc(F)cc3)n2)ccc1F ?
Reply | false

Ask | Hey, what did the test say about Cn1c2ccccc2c2c3c(c4c5ccccc5n(CCCCCC#N)c4c21)C(=O)N(O)C3=O ?
Reply | false

###

Test system: K-562 leukemia
Test: NCI-60 one-dose screen, 48 h (100 = growth as untreated, 0 = no growth, -100 = all killed)
Conditions: 10 µM unless noted
The panel holds about 83,000 compounds, 20% with a hit somewhere; the sample as a whole holds those more often.
# label = satisfied if growth >= 10% else not satisfied

Record excerpt, results attached:
{"molecule": "COc1ccc(/C=C/C(=O)c2c(O)c(C)c(O)c3c2OC2=CC(O)=C(C(C)=O)C(=O)[C@]23C)cc1", "targetEntity": "K-562 leukemia", "category": "not satisfied"}
{"molecule": "COc1ccc(-c2nn(-c3ccccc3)cc2/C=C/C(=O)OCc2cn(-c3ccc(F)c(Cl)c3)nn2)cc1", "targetEntity": "K-562 leukemia", "category": "satisfied"}

Ask | Does the molecule CCCCCCCCCCCCNC(=O)[C@H]1CSC(c2ccc(OC)c(F)c2)N1 (some centres undefined) have recorded growth that is 10% or more?
Reply | not satisfied

Ask | Does the molecule CNc1cc2nc3cc(NC)c(C)cc3cc2cc1C have recorded growth that is 10% or more?
Reply | satisfied

Ask | Does the molecule O=[N+]([O-])c1cccc(-c2nc3sccn3c2-c2ccnc(NCCCNS(=O)(=O)c3ccc(Br)cc3)n2)c1 have recorded growth that is 10% or more?
Reply | satisfied

Ask | Does the molecule CCN(CC)CCCCNc1ccc(NCCCCN(CC)CC)c2c1C(=O)c1ccccc1C2=O have recorded growth that is 10% or more?
Reply | not satisfied

Ask | Does the molecule Cc1ccc(-c2nc(/C=N/Nc3cc(C)nc4ccc(Cl)cc34)c(C)o2)cc1 have recorded growth that is 10% or more?
Reply | not satisfied

Ask | Does the molecule COc1ccc(-c2cc(/C=C3\C(=O)Nc4ccc(Cl)cc43)[nH]n2)cc1 have recorded growth that is 10% or more?
Reply | satisfied

Ask | Does the molecule CCOC(=O)CC(C)=N have recorded growth that is 10% or more?
Reply | satisfied

Values compiled from PubChem BioAssay (NCI).
